// provenance: patent US20210130452A1

target: T1, human IL-17A (human, UniProt Q16552 24-155); test: SPR (Biacore) off-rate
T1 construct: secreted form made in Hek293 cells (GenBank U32659); also called hIL-17A; hIL17A
T1 sequence (Q16552 other isoform, or with tags, fused parts or gaps): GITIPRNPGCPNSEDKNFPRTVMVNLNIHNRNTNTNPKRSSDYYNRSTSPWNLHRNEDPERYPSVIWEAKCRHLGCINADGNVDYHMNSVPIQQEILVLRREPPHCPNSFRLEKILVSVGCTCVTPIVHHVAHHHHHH
Listed here are binders together with their documented koff.

>  <Binder>
IL17MS3048 (VHH, variant of IL17MS13B03; Kabat numbering) VHH: EVQLVESGGGSVQPGDSLRLSCAASGRANSINWFGWFRQTPGKEREFVAGIRWSDAYTEYANSVKGRFTISRDNSKNTVDLQMNSLRPEDTAVYYCVLDLSTVRYWGQGTLVTVSS

>  <koff / s⁻¹>
0.000295

$$$$
>  <Binder>
IL17MS3045 (VHH, variant of IL17MS13B03; Kabat numbering) VHH: EVQLVESGGGSVQPGDSLRLSCAASGRANSINWFGWFRQAPGKEREFVAGIRWSDAYTEYANSVKGRFTISRDNSKNTVDLQMDSLRPEDTAVYYCVLDLSTVRYWGQGTLVTVSS

>  <koff / s⁻¹>
0.00027

$$$$
